- Test system: Enterococcus faecalis ST:33700 (vancomycin-resistent)
- Format: cell-based
- conditionDescription: JMRC-No. ST:33700; Supplementary Table 5
propertyMeasured: Inhibition zone diameter, Enterococcus faecalis (vancomycin-resistent)
Lab note: write the figure by itself, no unit.

Answered examples (2):
INSERT INTO results (compound, number) VALUES
  ('CC(C)C[C@H]1C(=O)O[C@H](C(C)C)C(=O)N(C)[C@@H](CC(C)C)C(=O)O[C@H](C(C)C)C(=O)N(C)[C@@H](CC(C)C)C(=O)O[C@H](C(C)C)C(=O)N(C)[C@@H](CC(C)C)C(=O)O[C@H](C(C)C)C(=O)N1C [bassianolide]', 0),
  ('CC(C)[C@H]1OC(=O)[C@H](Cc2ccccc2)N(C)C(=O)[C@@H](C(C)C)OC(=O)[C@H](Cc2ccccc2)N(C)C(=O)[C@@H](C(C)C)OC(=O)[C@H](Cc2ccccc2)N(C)C(=O)[C@@H](C(C)C)OC(=O)[C@H](Cc2ccccc2)N(C)C1=O', 0);

Write Inhibition zone diameter, Enterococcus faecalis (vancomycin-resistent) of CC(C)C[C@H]1C(=O)O[C@H](C(C)C)C(=O)N(C)[C@@H](CC(C)C)C(=O)O[C@H](C(C)C)C(=O)N(C)[C@@H](CC(C)C)C(=O)O[C@H](C(C)C)C(=O)N1C [hexa-bassianolide] ; system used: Enterococcus faecalis ST:33700 (vancomycin-resistent)
0

====

- Test system: Aspergillus fumigatus Afum:00073 = ATCC46645
- experimentalDetails: Antifungal inhibition zone test, A. fumigatus
- Assay type: cell-based
- conditionDescription: JMRC-No. ATCC 46645; Supplementary Table 6
Each entry below lists one item and its recorded Inhibition zone diameter, Aspergillus fumigatus value.
Reply with the value as a number alone.

Some compounds with recorded Inhibition zone diameter, Aspergillus fumigatus:
INSERT INTO assay_data (compound, number) VALUES
  ('CC(C)C[C@H]1C(=O)O[C@H](C(C)C)C(=O)N(C)[C@@H](CC(C)C)C(=O)O[C@H](C(C)C)C(=O)N(C)[C@@H](CC(C)C)C(=O)O[C@H](C(C)C)C(=O)N1C [hexa-bassianolide]', 0),
  ('CC(C)C[C@H]1C(=O)O[C@H](C(C)C)C(=O)N(C)[C@@H](CC(C)C)C(=O)O[C@H](C(C)C)C(=O)N(C)[C@@H](CC(C)C)C(=O)O[C@H](C(C)C)C(=O)N(C)[C@@H](CC(C)C)C(=O)O[C@H](C(C)C)C(=O)N1C [bassianolide]', 0),
  ('C[C@@H]1[C@H](O)[C@@H](C)/C=C/C=C/C=C/C=C/C=C/C=C/C=C/[C@H](O[C@@H]2O[C@H](C)[C@@H](O)[C@H](N)[C@@H]2O)C[C@@H]2O[C@](O)(C[C@@H](O)C[C@@H](O)[C@H](O)CC[C@@H](O)C[C@@H](O)CC(=O)O[C@H]1C)C[C@H](O)[C@H]2C(=O)O', 20);

Please turn your attention to the following entry.
Supply recorded Inhibition zone diameter, Aspergillus fumigatus for CC(C)[C@H]1C(=O)O[C@H](C(C)C)C(=O)N(C)[C@@H](C(C)C)C(=O)O[C@H](C(C)C)C(=O)N(C)[C@@H](C(C)C)C(=O)O[C@H](C(C)C)C(=O)N1C here.
0

====

- Tested on: Trypanosoma cruzi Tulahuen C4 (amastigotes)
- experimentalDetails: microbe, parasite or virus in culture
- conditionDescription: read-out: IC50 Trypanosoma cruzi; Tulahuen C4, amastigotes; Supplementary Table 4 and main text
propertyMeasured: IC50 (nM)
Numbers only; they are read as nM.

INSERT INTO measurements (compound, propertymeasured, number) VALUES
  ('CC(C)[C@H]1OC(=O)[C@H](Cc2ccccc2)N(C)C(=O)[C@@H](C(C)C)OC(=O)[C@H](Cc2ccccc2)N(C)C(=O)[C@@H](C(C)C)OC(=O)[C@H](Cc2ccccc2)N(C)C1=O', 'IC50', 764);

# ---- query compound ----
Identify the reported IC50 for the following entry. CC(C)C[C@H]1C(=O)O[C@H](C(C)C)C(=O)N(C)[C@@H](CC(C)C)C(=O)O[C@H](C(C)C)C(=O)N(C)[C@@H](CC(C)C)C(=O)O[C@H](C(C)C)C(=O)N(C)[C@@H](CC(C)C)C(=O)O[C@H](C(C)C)C(=O)N1C [bassianolide]
1390
